Tested on: Ischemic and Nonischemic Isolated Rat Heart
experimental-protocol: Isolated perfused rat heart (Langendorff), global ischemia/reperfusion: cardiac function, flow and LDH release
Parameters: species or system rat (male Sprague-Dawley)
assay-conditions: Postischemia (30 min.), 1 μM; occlusion 25 minutes, reperfusion 30 minutes
Where a name gives a salt, the structure may show the parent alone.
Tag: fulfilled if measured LVDP (Left Ventricular Developed Pressure) is not below 70 mmHg, not fulfilled if it is.

[[record]]
molecule = "COc1ccc(CSc2cc(Cl)ccc2N(CCCN(C)C)C(=O)Cc2ccccc2)cc1.Cl"
group = "not fulfilled"

[[record]]
molecule = "CN(C)CCCN(C(=O)Cc1ccccc1)c1ccccc1SCc1ccccc1.Cl"
group = "fulfilled"

[[record]]
molecule = "COc1ccc(CSc2ccccc2N(CCCN(C)C)C(=O)Cc2ccccc2)cc1 [Example 2, monohydrochloride]"
group = "fulfilled"

[[record]]
molecule = "CN(C)CCN(C(=O)Cc1ccccc1)c1ccccc1SCc1ccccc1.Cl"
group = "not fulfilled"

[[record]]
molecule = "COc1ccc([C@@H]2Sc3ccccc3N(CCN(C)C)C(=O)[C@@H]2OC(C)=O)cc1 [Diltiazem, reference compound]"
group = "fulfilled"

[[record]]
molecule = "CN(C)CCCN(C(=O)Cc1ccccc1)c1ccccc1SCc1ccc(Cl)cc1"
group = "not fulfilled"

[[record]]
molecule = "CN(C)CCCN(C(=O)Cc1ccccc1)c1ccccc1OCc1ccccc1.O=C(O)C(=O)O"
group = "fulfilled"

[[record]]
molecule = "CN(C)CCCCN(C(=O)Cc1ccccc1)c1ccccc1SCc1ccccc1"
group = "not fulfilled"


The reported measurements were obtained from patent US5116851A.
